system tested: TYRO3 (human) (UniProt Q06418)
Sequence (Q06418 whole entry, looked up): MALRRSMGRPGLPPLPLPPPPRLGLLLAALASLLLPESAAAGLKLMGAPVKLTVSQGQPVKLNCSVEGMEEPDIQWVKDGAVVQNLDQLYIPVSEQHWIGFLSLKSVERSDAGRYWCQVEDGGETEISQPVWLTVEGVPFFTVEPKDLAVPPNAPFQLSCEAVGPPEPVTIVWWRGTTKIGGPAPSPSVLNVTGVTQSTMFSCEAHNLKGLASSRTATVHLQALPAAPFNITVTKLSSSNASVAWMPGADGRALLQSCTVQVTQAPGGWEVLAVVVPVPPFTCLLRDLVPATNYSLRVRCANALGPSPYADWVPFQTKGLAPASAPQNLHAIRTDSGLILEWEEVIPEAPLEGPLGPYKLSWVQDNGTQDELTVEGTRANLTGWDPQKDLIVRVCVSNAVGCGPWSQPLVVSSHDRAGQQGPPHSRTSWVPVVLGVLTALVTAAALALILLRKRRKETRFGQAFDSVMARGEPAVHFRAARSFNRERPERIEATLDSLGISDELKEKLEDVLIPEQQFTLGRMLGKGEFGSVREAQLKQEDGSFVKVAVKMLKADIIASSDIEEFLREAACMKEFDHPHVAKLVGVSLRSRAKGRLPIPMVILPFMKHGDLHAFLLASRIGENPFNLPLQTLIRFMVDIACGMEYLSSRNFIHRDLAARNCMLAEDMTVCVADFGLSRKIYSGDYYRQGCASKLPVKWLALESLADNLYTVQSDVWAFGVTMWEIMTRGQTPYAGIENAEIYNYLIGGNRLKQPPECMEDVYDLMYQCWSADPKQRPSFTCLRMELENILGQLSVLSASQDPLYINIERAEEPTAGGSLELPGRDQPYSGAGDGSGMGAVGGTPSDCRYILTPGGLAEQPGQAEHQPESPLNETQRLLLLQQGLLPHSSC
experiment summary: radiometric filter-binding kinase assay, Kinase HotSpot
measurement conditions: compound 0.5 µM; ATP 10 µM
residual activity values by entry
Provide only the numeric value, understood in %.

Use the examples below as a reference point.
# smiles data, system tested, residual activity (%)
data = [
    ("CN(C)S(=O)(=O)c1ccc2c(c1)/C(=C/c1cc3c([nH]1)CCCC3)C(=O)N2", "TYRO3 (human) (UniProt Q06418)", 57.2),
    ("O=C1Nc2ccc(Br)cc2/C1=C\\c1cc2c([nH]1)CCCC2", "TYRO3 (human) (UniProt Q06418)", 104),
    ("O=C1c2ccccc2-c2nc3nnnn3nc21", "TYRO3 (human) (UniProt Q06418)", 33.3),
    ("Fc1ccc(-c2nc3n(c2-c2ccncc2)CCS3)cc1", "TYRO3 (human) (UniProt Q06418)", 104),
    ("CS(=O)(=O)CCNCc1ccc(-c2ccc3ncnc(Nc4ccc(OCc5cccc(F)c5)c(Cl)c4)c3c2)o1", "TYRO3 (human) (UniProt Q06418)", 98.9),
]

**Q:** Please provide the recorded residual activity for COc1ccc2c(c1)/C(=C/c1cnc[nH]1)C(O)=N2 , tested on TYRO3 (human) (UniProt Q06418).
**A:** 99.2

**Q:** Checklist item: residual activity tested on TYRO3 (human) (UniProt Q06418), entry c1ccc2c(-c3ccncc3)c[nH]c2c1 , value?
**A:** 98.1

Each recorded value in this set is attributed to the kinase profiling compilation of Christmann-Franck et al. (2016).
